Tested on: ORYSAT Rice, Tebonnet
MEASUREMENT NOTES: Preemergence herbicidal evaluation, ORYSAT
Format: in vivo, Oryza sativa, (L.)
Set-up: scale not given here
TEST CONTEXT: preemergence, rate 0.125 kg/ha
Readings of ORYSAT herbicidal rating for the listed compounds
MEASURE NAME: ORYSAT herbicidal rating

>  <COMPOUND SMILES>
Cc1ccc(O)cc1-n1nnc2cc(F)c(-n3c(=O)cc(C(F)(F)F)n(C)c3=O)cc21

>  <ASSAYED SYSTEM>
ORYSAT Rice, Tebonnet

>  <MEASURE NAME>
ORYSAT herbicidal rating

>  <EXPERIMENTAL VALUE>
0.0

$$$$
>  <COMPOUND SMILES>
C#CCOC(=O)COc1ccc(C)cc1-n1nnc2cc(F)c(-n3c(=O)cc(C(F)(F)F)n(C)c3=O)cc21

>  <ASSAYED SYSTEM>
ORYSAT Rice, Tebonnet

>  <MEASURE NAME>
ORYSAT herbicidal rating

>  <EXPERIMENTAL VALUE>
2.0

$$$$
>  <COMPOUND SMILES>
COc1ccc(-n2nnc3cc(F)c(-n4c(=O)cc(C(F)(F)F)n(C)c4=O)cc32)c(C)c1

>  <ASSAYED SYSTEM>
ORYSAT Rice, Tebonnet

>  <MEASURE NAME>
ORYSAT herbicidal rating

>  <EXPERIMENTAL VALUE>
1.0

$$$$
>  <COMPOUND SMILES>
Cn1c(C(F)(F)F)cc(=O)n(-c2cc3c(cc2F)nnn3-c2ccc(OCC(=O)O)cc2)c1=O

>  <ASSAYED SYSTEM>
ORYSAT Rice, Tebonnet

>  <MEASURE NAME>
ORYSAT herbicidal rating

>  <EXPERIMENTAL VALUE>
5.0

$$$$

----------
Quick reference: SETVI herbicidal rating of the listed items.
Test system: SETVI Foxtail, Green
MEASUREMENT NOTES: Preemergence herbicidal evaluation, SETVI
Assay type: in vivo, Setaria viridis, (L.) Beau
Set-up: scale not given here
TEST CONTEXT: preemergence, rate 0.062 kg/ha
Excerpt: The preemergence herbicidal activity of the test compounds of the present invention is exemplified by the following tests in which the seeds of a variety of monocotyledonous and dicotyledonous plants are separately mixed with potting soil and planted on top of approximately one inch of soil in separate pint cups. […] The treated cups are then placed on greenhouse benches, watered and cared for in accordance with conventional greenhouse procedures. […]
MEASURE NAME: SETVI herbicidal rating

>  <COMPOUND>
CCc1cccc(-n2nnc3cc(F)c(-n4c(=O)cc(C(F)(F)F)n(C)c4=O)cc32)c1 [Example 29]

>  <EXPERIMENTAL VALUE>
9.0

$$$$
>  <COMPOUND>
Cn1c(C(F)(F)F)cc(=O)n(-c2cc3c(cc2F)nnn3-c2ccc(OCC(=O)O)cc2)c1=O [Example 44]

>  <EXPERIMENTAL VALUE>
3.0

$$$$
>  <COMPOUND>
COc1ccccc1-n1nnc2cc(F)c(-n3c(=O)cc(C(F)(F)F)n(C)c3=O)cc21 [Example 16]

>  <EXPERIMENTAL VALUE>
9.0

$$$$
>  <COMPOUND>
COC(=O)COc1ccc(C)cc1-n1nnc2cc(F)c(-n3c(=O)cc(C(F)(F)F)n(C)c3=O)cc21 [Example 34]

>  <EXPERIMENTAL VALUE>
9.0

$$$$
>  <COMPOUND>
COC(=O)COc1ccccc1-n1nnc2cc(F)c(-n3c(=O)cc(C(F)(F)F)n(C)c3=O)cc21 [Example 35]

>  <EXPERIMENTAL VALUE>
6.5

$$$$
>  <COMPOUND>
C#CCOC(=O)COc1ccc(C)c(-n2nnc3cc(F)c(-n4c(=O)cc(C(F)(F)F)n(C)c4=O)cc32)c1 [Example 36]

>  <EXPERIMENTAL VALUE>
0.0

$$$$
>  <COMPOUND>
CCc1ccc(-n2nnc3cc(F)c(-n4c(=O)cc(C(F)(F)F)n(C)c4=O)cc32)cc1 [Example 17]

>  <EXPERIMENTAL VALUE>
9.0

$$$$

----------
Recorded melting point values for a group of molecules are listed next.

>  <COMPOUND SMILES>
CCc1cccc(-n2nnc3cc(F)c(-n4c(=O)cc(C(F)(F)F)[nH]c4=O)cc32)c1

>  <melting point>
160 °C

$$$$
>  <COMPOUND SMILES>
COc1ccc(C)cc1-n1nnc2cc(F)c(-n3c(=O)cc(C(F)(F)F)n(C)c3=O)cc21

>  <melting point>
175 to 181 °C

$$$$
>  <COMPOUND SMILES>
CCc1ccc(-n2nnc3cc(F)c(-n4c(=O)cc(C(F)(F)F)[nH]c4=O)cc32)cc1

>  <melting point>
160 to 164 °C

$$$$
>  <COMPOUND SMILES>
CCc1cccc(-n2nnc3cc(F)c(-n4c(=O)cc(C(F)(F)F)n(C)c4=O)cc32)c1

>  <melting point>
52 to 65 °C

$$$$
>  <COMPOUND SMILES>
COc1ccc(C)cc1-n1nnc2cc(F)c(-n3c(=O)cc(C(F)(F)F)[nH]c3=O)cc21

>  <melting point>
145 to 150 °C

$$$$
>  <COMPOUND SMILES>
CCc1ccc(-n2nnc3cc(F)c(-n4c(=O)cc(C(F)(F)F)n(C)c4=O)cc32)cc1

>  <melting point>
189 to 192 °C

$$$$

----------
Tested on: ORYSAT Rice, Tebonnet
MEASUREMENT NOTES: Preemergence herbicidal evaluation, ORYSAT
Type: in vivo, Oryza sativa, (L.)
Parameters: scale not given here
TEST CONTEXT: preemergence, rate 0.125 kg/ha
Below, each entry is listed with its recorded ORYSAT herbicidal rating.

>  <MOLECULE>
C#CCOC(=O)COc1ccc(C)c(-n2nnc3cc(F)c(-n4c(=O)cc(C(F)(F)F)n(C)c4=O)cc32)c1 [Example 36]

>  <ORYSAT herbicidal rating>
1.5

$$$$
>  <MOLECULE>
COc1ccc(C)cc1-n1nnc2cc(F)c(-n3c(=O)cc(C(F)(F)F)n(C)c3=O)cc21 [Example 18]

>  <ORYSAT herbicidal rating>
6.0

$$$$
>  <MOLECULE>
COC(=O)COc1ccc(C)c(-n2nnc3cc(F)c(-n4c(=O)cc(C(F)(F)F)n(C)c4=O)cc32)c1 [Example 38]

>  <ORYSAT herbicidal rating>
0.0

$$$$
>  <MOLECULE>
CCc1ccccc1-n1nnc2cc(F)c(-n3c(=O)cc(C(F)(F)F)n(C)c3=O)cc21 [Example 25]

>  <ORYSAT herbicidal rating>
1.5

$$$$
>  <MOLECULE>
Cc1cc(O)ccc1-n1nnc2cc(F)c(-n3c(=O)cc(C(F)(F)F)n(C)c3=O)cc21 [Example 33]

>  <ORYSAT herbicidal rating>
0.0

$$$$
>  <MOLECULE>
CCc1ccc(-n2nnc3cc(F)c(-n4c(=O)cc(C(F)(F)F)n(C)c4=O)cc32)cc1 [Example 17]

>  <ORYSAT herbicidal rating>
4.7

$$$$
>  <MOLECULE>
Cc1ccc(OCC(=O)O)cc1-n1nnc2cc(F)c(-n3c(=O)cc(C(F)(F)F)n(C)c3=O)cc21 [Example 37]

>  <ORYSAT herbicidal rating>
0.0

$$$$
>  <MOLECULE>
COc1ccccc1-n1nnc2cc(F)c(-n3c(=O)cc(C(F)(F)F)n(C)c3=O)cc21 [Example 16]

>  <ORYSAT herbicidal rating>
9.0

$$$$
>  <MOLECULE>
COCc1ccccc1-n1nnc2cc(F)c(-n3c(=O)cc(C(F)(F)F)n(C)c3=O)cc21 [Example 26]

>  <ORYSAT herbicidal rating>
7.0

$$$$
>  <MOLECULE>
Cc1ccccc1-n1nnc2cc(F)c(-n3c(=O)cc(C(F)(F)F)n(C)c3=O)cc21 [Example 20]

>  <ORYSAT herbicidal rating>
3.0

$$$$

----------
System: GALAP Galium
MEASUREMENT NOTES: Preemergence herbicidal evaluation, GALAP
Assay type: in vivo, Galium aparine
Set-up: scale not given here
TEST CONTEXT: preemergence, rate 0.062 kg/ha

>  <MOLECULE>
COCc1ccccc1-n1nnc2cc(F)c(-n3c(=O)cc(C(F)(F)F)n(C)c3=O)cc21 [Example 26]

>  <GALAP herbicidal rating>
7.0

$$$$
>  <MOLECULE>
C=CCOc1ccc(-n2nnc3cc(F)c(-n4c(=O)cc(C(F)(F)F)n(C)c4=O)cc32)c(C)c1 [Example 43]

>  <GALAP herbicidal rating>
0.0

$$$$
>  <MOLECULE>
CCc1ccc(-n2nnc3cc(F)c(-n4c(=O)cc(C(F)(F)F)n(C)c4=O)cc32)cc1COC [Example 28]

>  <GALAP herbicidal rating>
0.0

$$$$
>  <MOLECULE>
COc1ccccc1-n1nnc2cc(F)c(-n3c(=O)cc(C(F)(F)F)n(C)c3=O)cc21 [Example 16]

>  <GALAP herbicidal rating>
9.0

$$$$
>  <MOLECULE>
COC(=O)C(C)Oc1ccc(C)cc1-n1nnc2cc(F)c(-n3c(=O)cc(C(F)(F)F)n(C)c3=O)cc21 (stereo not shown) [Example 41]

>  <GALAP herbicidal rating>
0.0

$$$$
>  <MOLECULE>
COC(=O)COc1ccc(C)cc1-n1nnc2cc(F)c(-n3c(=O)cc(C(F)(F)F)n(C)c3=O)cc21 [Example 34]

>  <GALAP herbicidal rating>
0.0

$$$$
>  <MOLECULE>
Cc1cc(O)ccc1-n1nnc2cc(F)c(-n3c(=O)cc(C(F)(F)F)n(C)c3=O)cc21 [Example 33]

>  <GALAP herbicidal rating>
0.0

$$$$
>  <MOLECULE>
COc1ccc(-n2nnc3cc(F)c(-n4c(=O)cc(C(F)(F)F)n(C)c4=O)cc32)cc1 [Example 27]

>  <GALAP herbicidal rating>
9.0

$$$$
>  <MOLECULE>
COc1ccc(C)cc1-n1nnc2cc(F)c(-n3c(=O)cc(C(F)(F)F)n(C)c3=O)cc21 [Example 18]

>  <GALAP herbicidal rating>
5.0

$$$$
>  <MOLECULE>
CCc1ccc(-n2nnc3cc(F)c(-n4c(=O)cc(C(F)(F)F)n(C)c4=O)cc32)cc1 [Example 17]

>  <GALAP herbicidal rating>
1.0

$$$$
